The values you see were collected from ChEMBL document CHEMBL2029240.

# assay-explanation: Oral bioavailability in dog at 10 mg/kg
# Format: ADME, organism-based, Canis lupus familiaris
# measurement-context: in vivo
quantity: bioavailability
Respond with a number, then the unit of measure.

What measured bioavailability goes with `O=C(NCC(=O)N1CC[C@H](N[C@H]2CC[C@@](O)(c3ccc(-c4ncccn4)cn3)CC2)C1)c1cccc(C(F)(F)F)c1` ?
78%

---

# experimental-system: C-C chemokine receptor type 2 (Homo sapiens, UniProt P41597)
# Sequence (P41597 whole entry): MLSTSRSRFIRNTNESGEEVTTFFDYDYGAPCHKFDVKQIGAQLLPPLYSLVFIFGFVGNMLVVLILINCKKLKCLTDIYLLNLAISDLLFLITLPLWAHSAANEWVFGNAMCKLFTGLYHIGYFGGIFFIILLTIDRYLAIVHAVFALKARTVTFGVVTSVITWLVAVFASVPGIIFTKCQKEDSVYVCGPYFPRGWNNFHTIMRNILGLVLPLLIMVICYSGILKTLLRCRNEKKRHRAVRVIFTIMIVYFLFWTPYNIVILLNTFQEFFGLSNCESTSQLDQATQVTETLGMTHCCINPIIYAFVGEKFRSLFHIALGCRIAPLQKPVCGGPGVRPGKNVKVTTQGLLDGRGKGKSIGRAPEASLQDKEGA
# assay-explanation: Antagonist activity at CCR2 receptor in human whole blood assessed as inhibition of alexa-tagged MCP-induced effect 30 mins by flow cytometry
# Assay type: functional, tissue-based
quantity: pIC50
One number for each entry, as −log10 of the molar value.

Consider the following illustrative entries.
>  <structure-as-smiles>
O=C(C1CCN(c2cccc(C(F)(F)F)c2)CC1)N1CC[C@H](N[C@H]2CC[C@@](O)(c3ccc(-c4ncccn4)cn3)CC2)C1

>  <observed-value>
7.43

$$$$
>  <structure-as-smiles>
O=C(C1CCN(c2nccc(C(F)(F)F)n2)CC1)N1CC[C@H](N[C@H]2CC[C@@](O)(c3ccc(-c4ncccn4)cn3)CC2)C1

>  <observed-value>
7.54

$$$$
>  <structure-as-smiles>
N#Cc1ccnc(N2CCC(C(=O)N3CC[C@H](N[C@H]4CC[C@@](O)(c5ccc(-c6ncccn6)cn5)CC4)C3)CC2)c1

>  <observed-value>
7.48

$$$$
>  <structure-as-smiles>
O=C(C1CCN(c2cccc(C(F)(F)F)n2)CC1)N1CC[C@H](N[C@H]2CC[C@@](O)(c3ccc(-c4ncccn4)cn3)CC2)C1

>  <observed-value>
7.06

$$$$

Would you mind giving pIC50 for every compound in the list below?
1. O=C(N1CC[C@H](N[C@H]2CC[C@@](O)(c3ccc(-c4ncccn4)cn3)CC2)C1)C1(O)CCN(c2cc(C(F)(F)F)ccn2)CC1
2. O=C(C1CCN(c2cc(C(F)(F)F)ncn2)CC1)N1CC[C@H](N[C@H]2CC[C@@](O)(c3ccc(-c4ncccn4)cn3)CC2)C1

1: 7.48; 2: 7.40

What measured pIC50 goes with `O=C(C1CCN(c2cc(C(F)(F)F)ccn2)CC1)N1CC[C@H](N[C@H]2CC[C@@](O)(c3ccc(-c4ncccn4)cn3)CC2)C1` ?
7.92
